binders and their reported kon
target_under_test: T1, RAGE-Fc chimera protein (BioTechne, 1145-RG) (UniProt Q15109 24-344)
T1 construct: Bought reagent; also called Fc-RAGE; not shown: CH domain of IgG (Fc)
experimental_details: BLI: RAGE-Fc on AHC sensors, HMGB1 construct 0-25 µM in solution; kinetics plot
Description: RAGE-Fc was immobilized in the surface of AHC sensors and dipped in rising concentration of different HMGB1 constructs. Two experiments were run with different concentration ranges: the three columns of graphs in the left, 0 to 22.22 μM HMGB1 over 9 steps; on the right, 0 to 25 μM over 7 steps. Both are color-coded by concentration (top). Colors indicate the specific construct concentration. Each graph corresponds to a single sensor (replicate). […]
experimental_readout: kon

* dBB12L (double Box B HMGB1 construct with 12-residue linker) (ligand, also called dBB12L-HMGB1; dBB-HMGB1) KDPNAPKRPPSAFFLFCSEYRPKIKGEHPGLSIGDVAKKLGEMWNNTAADDKQPYEKKAAKLKEKYEKDIAAYRAKGKPDAAKKGVKDPNAPKRPPSAFFLFCSEYRPKIKGEHPGLSIGDVAKKLGEMWNNTAADDKQPYEKKAAKLKEKYEKDIAAYRAKGKPDAAKKGV | 164000 M⁻¹ s⁻¹
* fully-reduced HMGB1, full-length (1-214) (ligand, cysteines reduced (Cys 22, Cys 44, Cys 105), Tags differ by assay: biotinylated (c011) in BLI with CXCL12, His6-tagged in the reverse peptide array, TEV-cleaved in the RAGE ELISA and BLI; also called FR-HMGB1; FR FL-HMGB1 (c011)) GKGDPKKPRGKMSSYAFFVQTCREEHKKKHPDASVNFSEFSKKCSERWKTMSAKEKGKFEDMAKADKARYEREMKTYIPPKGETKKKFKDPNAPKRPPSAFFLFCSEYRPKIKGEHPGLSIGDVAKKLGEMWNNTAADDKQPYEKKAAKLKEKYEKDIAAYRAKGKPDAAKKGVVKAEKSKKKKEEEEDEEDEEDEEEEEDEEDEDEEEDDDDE | 51000 M⁻¹ s⁻¹
* DS-HMGB1 1-184 (ligand, oxidized Box A (disulfide Cys 22-Cys 44)) GKGDPKKPRGKMSSYAFFVQTCREEHKKKHPDASVNFSEFSKKCSERWKTMSAKEKGKFEDMAKADKARYEREMKTYIPPKGETKKKFKDPNAPKRPPSAFFLFCSEYRPKIKGEHPGLSIGDVAKKLGEMWNNTAADDKQPYEKKAAKLKEKYEKDIAAYRAKGKPDAAKKGVVKAEKSKKKK | 349000 M⁻¹ s⁻¹
* non-oxidizable 3S-HMGB1, full-length (1-214) (ligand, Biotinylated (c022) in BLI with CXCL12, His6-tagged in the reverse peptide array; also called 3S-FL HMGB1 (c022)) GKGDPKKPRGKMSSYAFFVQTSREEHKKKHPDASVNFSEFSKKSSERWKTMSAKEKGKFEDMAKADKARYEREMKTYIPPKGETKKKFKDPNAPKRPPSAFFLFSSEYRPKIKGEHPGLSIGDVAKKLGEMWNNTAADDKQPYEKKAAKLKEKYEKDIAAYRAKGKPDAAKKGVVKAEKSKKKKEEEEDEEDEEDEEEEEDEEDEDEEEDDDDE | 17000 M⁻¹ s⁻¹
* DS Box A 1-88 (full HMG Box construct with flanking regions) (ligand, oxidized (disulfide Cys 22-Cys 44), also called oxidized Box A alone) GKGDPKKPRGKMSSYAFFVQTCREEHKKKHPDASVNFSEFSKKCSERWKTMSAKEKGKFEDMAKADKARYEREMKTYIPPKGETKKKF | 28000 M⁻¹ s⁻¹
* DS-HMGB1 1-164 (ligand, oxidized Box A (disulfide Cys 22-Cys 44)) GKGDPKKPRGKMSSYAFFVQTCREEHKKKHPDASVNFSEFSKKCSERWKTMSAKEKGKFEDMAKADKARYEREMKTYIPPKGETKKKFKDPNAPKRPPSAFFLFCSEYRPKIKGEHPGLSIGDVAKKLGEMWNNTAADDKQPYEKKAAKLKEKYEKDIAAYRAK | 178000 M⁻¹ s⁻¹
* disulfide HMGB1, full-length (ligand, disulfide bond between Cys 22 and Cys 44, also called DS-HMGB1; FL-DS-HMGB1) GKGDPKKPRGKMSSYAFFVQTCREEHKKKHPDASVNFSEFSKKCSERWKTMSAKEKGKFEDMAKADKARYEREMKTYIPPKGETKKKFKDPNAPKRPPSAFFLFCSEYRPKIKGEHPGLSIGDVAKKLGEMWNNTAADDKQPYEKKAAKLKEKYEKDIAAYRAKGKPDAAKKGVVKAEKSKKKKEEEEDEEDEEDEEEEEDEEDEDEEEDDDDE | 215000 M⁻¹ s⁻¹
